This collection of values is drawn from ChEMBL document CHEMBL1127754.

Biological target: 3-hydroxy-3-methylglutaryl-coenzyme A reductase (Homo sapiens) (UniProt P04035)
Sequence (P04035 whole entry): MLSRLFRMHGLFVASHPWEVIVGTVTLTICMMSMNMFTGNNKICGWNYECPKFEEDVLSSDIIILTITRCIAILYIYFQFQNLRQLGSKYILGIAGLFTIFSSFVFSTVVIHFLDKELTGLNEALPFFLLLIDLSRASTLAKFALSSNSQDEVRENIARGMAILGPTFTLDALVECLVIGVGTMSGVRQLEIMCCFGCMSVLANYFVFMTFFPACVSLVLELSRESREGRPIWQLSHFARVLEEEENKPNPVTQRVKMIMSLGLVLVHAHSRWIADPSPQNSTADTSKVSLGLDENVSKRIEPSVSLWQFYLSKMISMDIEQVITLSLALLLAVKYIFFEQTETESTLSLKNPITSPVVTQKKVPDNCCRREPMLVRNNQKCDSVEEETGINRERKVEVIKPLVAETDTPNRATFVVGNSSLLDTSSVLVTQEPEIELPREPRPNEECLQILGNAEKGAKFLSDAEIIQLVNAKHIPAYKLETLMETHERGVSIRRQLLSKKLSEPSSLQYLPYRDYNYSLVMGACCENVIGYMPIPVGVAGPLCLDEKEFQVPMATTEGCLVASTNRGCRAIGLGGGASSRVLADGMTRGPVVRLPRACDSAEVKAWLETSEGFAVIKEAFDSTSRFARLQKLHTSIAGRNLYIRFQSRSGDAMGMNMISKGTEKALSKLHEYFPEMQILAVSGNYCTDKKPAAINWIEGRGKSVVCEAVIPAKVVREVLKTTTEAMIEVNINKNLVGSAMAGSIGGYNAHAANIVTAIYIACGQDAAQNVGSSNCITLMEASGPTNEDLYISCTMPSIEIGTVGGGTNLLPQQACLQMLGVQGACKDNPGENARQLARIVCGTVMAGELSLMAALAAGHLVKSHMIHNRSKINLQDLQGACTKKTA
Test: Tested for the percent inhibition against HMG-CoA reductase transcription in HepG2 cells
Assay type: cell-based
Set-up: concentration or dose not given beside the values
Conditions: concentration not given here
Would you mind telling me the reported inhibition of each entry?
Numbers only; they are read as %.

Query block: Fill in the blank: the reported inhibition of CC(C)(O)CCCC[C@H]1CC[C@@H](/C=C/[C@]2(C)CC[C@@H](O)CC2)C1 (stereo in doubt; 6) is ____.
Result block: 0

Query block: Also, `C[C@H](CCCC(C)(C)O)[C@H]1CC[C@H]2[C@@H]3CC=C4C[C@@H](O)CC[C@]4(C)[C@H]3CC[C@]12C` please.
Result block: 70

Query block: Could you do the same for CC(C)CCCC[C@@H]1C[C@H](/C=C/[C@]2(C)CC[C@@H](O)CC2)[C@@H](O)[C@H]1O (stereo in doubt; 7) , please?
Result block: 0

Query block: Same thing, different compound: `CC(C)(O)CCCCc1cccc(CC[C@]2(C)CC[C@@H](O)CC2)c1`
Result block: 29.3
